Tested on: HCV replicon, genotype-1a variant with glutamine 30 changed to glutamate in the NS5A protein
experiment.summary: microbe, parasite or virus in culture
Assay type: cell-based, HCV genotype 1a
cond: HCV replicon genotype 1a Q30E (Q→E) variant; test compound titrated with an NS5A-targeting compound (BMS-790052 fixed at 200 nM); ranking of synergist activity
Readings of Fold-Synergistic 1a (Q30E) for the listed compounds

# example entries with known answers
{"compound": "CC(C)(C)[C@H](NC(=O)C12CCC(CC1)CO2)c1nc(-c2ccc(-c3ccc(-c4c[nH]c([C@@H](NC(=O)C56CCC(CC5)CO6)C(C)(C)C)n4)cc3)cc2)c[nH]1 [Compound Y-74]", "Fold-Synergistic 1a (Q30E)": ">100 fold"}
{"compound": "CC(C)(C)C(=O)N1CCC[C@H]1c1ncc(-c2ccc(-c3ccc(-c4cnc([C@@H]5CCCN5C(=O)C(C)(C)C)[nH]4)cc3)cc2)[nH]1 [Compound S-177]", "Fold-Synergistic 1a (Q30E)": "<10 fold"}
{"compound": "C[C@@H]1CN(C(=O)C(=O)N[C@H](c2nc(-c3ccc(-c4ccc(-c5c[nH]c([C@@H](NC(=O)C(=O)N6C[C@@H](C)O[C@@H](C)C6)C6(C)CC6)n5)cc4)cc3)c[nH]2)C2(C)CC2)C[C@H](C)O1 [Compound W-61]", "Fold-Synergistic 1a (Q30E)": ">100 fold"}
{"compound": "CC(C)(C)OC(=O)NC1(C(=O)N[C@H](c2nc(-c3ccc(-c4ccc(-c5c[nH]c([C@@H](NC(=O)C6(NC(=O)OC(C)(C)C)CCOCC6)C(C)(C)C)n5)cc4)cc3)c[nH]2)C(C)(C)C)CCOCC1 [Compound W-132]", "Fold-Synergistic 1a (Q30E)": ">100 fold"}

// moving on: another record for Fold-Synergistic 1a (Q30E)
Note to self: Fold-Synergistic 1a (Q30E) recorded for CC(C)CC(=O)NC1(c2nc(-c3ccc(-c4ccc(-c5c[nH]c(C6(NC(=O)CC(C)C)CCC6)n5)cc4)cc3)c[nH]2)CCC1 [Compound N-11] was <10 fold

----------
Tested on: HCV replicon, genotype-1a variant with glutamine 30 changed to glutamate in the NS5A protein
experiment.summary: microbe, parasite or virus in culture
Assay type: cell-based, HCV genotype 1a
cond: HCV replicon genotype 1a Q30E (Q→E) variant; test compound titrated with an NS5A-targeting compound (BMS-790052 fixed at 200 nM); ranking of synergist activity
measured.attribute: Fold-Synergistic 1a (Q30E)

Please review the entries below; each comes with its answer.
{"mol": "CC(C)(C)[C@H](NC(=O)[C@H]1CCCO1)c1nc(-c2ccc(-c3ccc(-c4c[nH]c([C@@H](NC(=O)[C@H]5CCCO5)C(C)(C)C)n4)cc3)cc2)c[nH]1", "reading": ">100 fold"}
{"mol": "CC(C)CC(=O)NC1(c2nc(-c3ccc(-c4ccc(-c5c[nH]c(C6(NC(=O)CC(C)C)Cc7ccccc7C6)n5)cc4)cc3)c[nH]2)Cc2ccccc2C1", "reading": "<10 fold"}

Per the records, this compound ( CC(C)(C)[C@H](NC(=O)C1CCOCC1)c1nc(-c2ccc(-c3ccc(-c4c[nH]c([C@@H](NC(=O)C5CCOCC5)C(C)(C)C)n4)cc3)cc2)c[nH]1 ) has Fold-Synergistic 1a (Q30E) equal to >100 fold

----------
Tested on: HCV replicon, genotype-1a variant with glutamine 30 changed to glutamate in the NS5A protein
experiment.summary: microbe, parasite or virus in culture
Format: cell-based, HCV genotype 1a
cond: HCV replicon genotype 1a Q30E (Q→E) variant; test compound titrated with an NS5A-targeting compound (BMS-790052 fixed at 200 nM); ranking of synergist activity
Description: The NS5A synergistic inhibitory effect of test compounds can be determined using various amounts of an NS5A-targeting compound with titration of a second compound of interest. […] In one embodiment, the HCV genotype strain can be genotype 1a containing a change at amino acid 30 of the NS5A protein consisting of glutamine to glutamate. The test compound can be chosen from compounds listed above or from others present in the literature.
This listing pairs compounds with measured Fold-Synergistic 1a (Q30E).

Field: example entries. Status: answers known.
{"compound": "CC(C)(C)[C@H](NC(=O)C(O)(C1CC1)C1CC1)c1nc(-c2ccc(-c3ccc(-c4c[nH]c([C@@H](NC(=O)C(O)(C5CC5)C5CC5)C(C)(C)C)n4)cc3)cc2)c[nH]1", "Fold-Synergistic 1a (Q30E)": ">100 fold"}
{"compound": "CCC(C)C(=O)N1CCC[C@H]1c1ncc(-c2ccc(-c3ccc(-c4cnc([C@@H]5CCCN5C(=O)C(C)CC)[nH]4)cc3)cc2)[nH]1 (stereo partly shown)", "Fold-Synergistic 1a (Q30E)": "<10 fold"}
{"compound": "CC(C)(C)[C@H](NC(=O)C12CCC(CC1)C2)c1nc(-c2ccc(-c3ccc(-c4c[nH]c([C@@H](NC(=O)C56CCC(CC5)C6)C(C)(C)C)n4)cc3)cc2)c[nH]1", "Fold-Synergistic 1a (Q30E)": ">100 fold"}
{"compound": "CC(C)(C(=O)NCC(F)(F)F)C(=O)N[C@H](c1nc(-c2ccc(-c3ccc(-c4c[nH]c([C@@H](NC(=O)C(C)(C)C(=O)NCC(F)(F)F)C(C)(C)C)n4)cc3)cc2)c[nH]1)C(C)(C)C", "Fold-Synergistic 1a (Q30E)": ">100 fold"}
{"compound": "C[C@@H](OC(=O)N(C)C1(C(=O)N[C@H](c2nc(-c3ccc(-c4ccc(-c5c[nH]c([C@@H](NC(=O)C6(N(C)C(=O)O[C@H](C)C(F)(F)F)CC6)C6(C)CC6)n5)cc4)cc3)c[nH]2)C2(C)CC2)CC1)C(F)(F)F", "Fold-Synergistic 1a (Q30E)": ">100 fold"}

Reported Fold-Synergistic 1a (Q30E) for CC1(C(=O)N[C@H](c2nc(-c3ccc(-c4ccc(-c5c[nH]c([C@@H](NC(=O)C6(C)CCOCC6)C(C)(C)C)n5)cc4)cc3)c[nH]2)C(C)(C)C)CCOCC1 was >100 fold

Consider Cc1cc(-c2ccc(-c3c[nH]c([C@@H](NC(=O)C(C)(C)C)C(C)(C)C)n3)cc2)ccc1-c1c[nH]c([C@@H](NC(=O)C(C)(C)C)C(C)(C)C)n1 . Its measured Fold-Synergistic 1a (Q30E) is >100 fold

Recorded Fold-Synergistic 1a (Q30E) (compound CO[C@](C(=O)N[C@H](c1nc(-c2ccc(-c3ccc(-c4c[nH]c([C@@H](NC(=O)[C@@](OC)(c5ccccc5)C(F)(F)F)C(C)(C)C)n4)cc3)cc2)c[nH]1)C(C)(C)C)(c1ccccc1)C(F)(F)F ): >100 fold

// O=C(c1ncc(Cl)c2ccccc12)N1CCC[C@H]1c1ncc(-c2ccc(-c3ccc(-c4cnc([C@@H]5CCCN5C(=O)c5ncc(Cl)c6ccccc56)[nH]4)cc3)cc2)[nH]1 : Fold-Synergistic 1a (Q30E) value = >100 fold

The reported Fold-Synergistic 1a (Q30E) of the compound COC(=O)N[C@H](C(=O)N[C@H](c1ncc(-c2ccc(C#Cc3ccc(-c4cnc([C@@H](NC(=O)[C@@H](NC(=O)OC)C(C)C)C(C)C)[nH]4)cc3)cc2)[nH]1)C(C)C)C(C)C was >10 fold

----------
The following molecules are listed with their measured Fold-Synergistic 1a (Q30E) values.
Tested on: HCV replicon, genotype-1a variant with glutamine 30 changed to glutamate in the NS5A protein
experiment.summary: microbe, parasite or virus in culture
Assay type: cell-based, HCV genotype 1a
cond: HCV replicon genotype 1a Q30E (Q→E) variant; test compound titrated with an NS5A-targeting compound (BMS-790052 fixed at 200 nM); ranking of synergist activity

# example entries with known answers
{"molecule": "CC(C)(Br)C(=O)N[C@H](c1nc(-c2ccc(-c3ccc(-c4c[nH]c([C@@H](NC(=O)C(C)(C)Br)C(C)(C)C)n4)cc3)cc2)c[nH]1)C(C)(C)C [Compound W-149]", "Fold-Synergistic 1a (Q30E)": ">100 fold"}
{"molecule": "CC(C)(C)[C@H](NC(=O)[C@@H]1CCC[C@@H]1O)c1nc(-c2ccc(-c3ccc(-c4c[nH]c([C@@H](NC(=O)[C@@H]5CCC[C@@H]5O)C(C)(C)C)n4)cc3)cc2)c[nH]1 [Compound P-171]", "Fold-Synergistic 1a (Q30E)": ">100 fold"}
{"molecule": "CCN(CC(F)(F)F)C(=O)C(=O)N[C@H](c1nc(-c2ccc(-c3ccc(-c4c[nH]c([C@@H](NC(=O)C(=O)N(CC)CC(F)(F)F)C(C)C)n4)cc3)cc2)c[nH]1)C(C)C [Compound W-56]", "Fold-Synergistic 1a (Q30E)": ">100 fold"}
{"molecule": "C[C@H]1CCN(C(=O)C(=O)N2CCC(F)(F)CC2)C1c1nc(-c2ccc(-c3ccc(-c4c[nH]c([C@@H]5[C@@H](C)CCN5C(=O)C(=O)N5CCC(F)(F)CC5)n4)cc3)cc2)c[nH]1 (some centres unmarked) [Compound W-187]", "Fold-Synergistic 1a (Q30E)": ">100 fold"}

For this molecule ( O=C(Cc1ccccc1F)N1CCC[C@H]1c1ncc(-c2ccc(-c3ccc(-c4cnc([C@@H]5CCCN5C(=O)Cc5ccccc5F)[nH]4)cc3)cc2)[nH]1 [Compound S-178] ), measured Fold-Synergistic 1a (Q30E) is <10 fold
